# SYSTEM UNDER TEST: Histamine H3 receptor (Cavia porcellus)
# Sequence (Q9JI35 whole entry): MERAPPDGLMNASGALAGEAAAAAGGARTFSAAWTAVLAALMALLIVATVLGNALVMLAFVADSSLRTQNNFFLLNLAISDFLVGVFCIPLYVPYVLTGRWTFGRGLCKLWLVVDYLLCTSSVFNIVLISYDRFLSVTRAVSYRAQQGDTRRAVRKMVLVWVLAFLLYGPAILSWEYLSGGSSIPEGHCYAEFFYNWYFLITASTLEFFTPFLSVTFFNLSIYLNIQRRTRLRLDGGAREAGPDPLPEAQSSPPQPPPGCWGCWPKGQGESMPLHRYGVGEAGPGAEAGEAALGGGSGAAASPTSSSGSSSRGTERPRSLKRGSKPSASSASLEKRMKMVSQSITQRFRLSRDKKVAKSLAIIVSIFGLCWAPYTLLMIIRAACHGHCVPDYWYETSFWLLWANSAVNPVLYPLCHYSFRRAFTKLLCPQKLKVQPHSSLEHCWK
# ASSAY INFO: Histamine H3 radioligand binding assay, guinea pig cortex ([3H]-R-α-methylhistamine)
# STUDY CONDITIONS: guinea pig cortex membranes, competition with 1 nM [3H]-R-α-methylhistamine; read-out: pKi (Guinea pig cortex) (converted)
Structures can show the parent of a compound that is named as a salt.
Catalogue of log10(Ki) readings, one per entry.
TEST READOUT: log10(Ki) (log10 of the value in µM)

[
  {
    "COMPOUND": "CN1CCC[C@H]1CCCNS(=O)(=O)N(C)Cc1ccc(Cl)cc1",
    "SYSTEM UNDER TEST": "Histamine H3 receptor (Cavia porcellus)",
    "log10(Ki)": -0.50
  },
  {
    "COMPOUND": "N=C(N)N(CCCCCCN1CCCC1)Cc1ccc(Cl)cc1 [Example 70, bis-hydrochloride]",
    "SYSTEM UNDER TEST": "Histamine H3 receptor (Cavia porcellus)",
    "log10(Ki)": -2.30
  },
  {
    "COMPOUND": "N=C(N)N(CCCCCCN1CCCC1)CCC12CC3CC(CC(C3)C1)C2 [Example 78, bis-hydrochloride]",
    "SYSTEM UNDER TEST": "Histamine H3 receptor (Cavia porcellus)",
    "log10(Ki)": -1.10
  },
  {
    "COMPOUND": "N=C(NCc1ccc(Cl)cc1)N(CCCCN1CCCC1)Cc1ccc(Cl)cc1 [Example 52, bis-hydrochloride]",
    "SYSTEM UNDER TEST": "Histamine H3 receptor (Cavia porcellus)",
    "log10(Ki)": -0.50
  },
  {
    "COMPOUND": "C[C@@H](NC(=N)NCCCCN1CCCC1)C1CCCCC1 [Example 44, bis-hydrochloride]",
    "SYSTEM UNDER TEST": "Histamine H3 receptor (Cavia porcellus)",
    "log10(Ki)": -2.80
  },
  {
    "COMPOUND": "O=S(=O)(NCCN1CCCC1)NCc1ccc(Cl)cc1",
    "SYSTEM UNDER TEST": "Histamine H3 receptor (Cavia porcellus)",
    "log10(Ki)": 0.00
  },
  {
    "COMPOUND": "CN1CC(OCc2ccc(Cl)cc2)CC1CCCNS(=O)(=O)NCc1ccc(Cl)cc1 (centres unmarked)",
    "SYSTEM UNDER TEST": "Histamine H3 receptor (Cavia porcellus)",
    "log10(Ki)": 0.40
  },
  {
    "COMPOUND": "N=C(NCCCCCN1CCCC1)NCCC12CC3CC(CC(C3)C1)C2 [Example 37, bis-hydrochloride]",
    "SYSTEM UNDER TEST": "Histamine H3 receptor (Cavia porcellus)",
    "log10(Ki)": -1.90
  }
]
